Consider the following compounds and their measured Activity readings.
Test system: Rattus norvegicus
Protocol: Anti-inflammatory activity in Rattus norvegicus Wistar (rat) assessed as protection against carrageenan-induced paw edema at 20 mg/kg, po measured at 3 hr by plethysmographic analysis (reference value: 4 +/- 0.75%)
Type: functional
Numeric answer only, unit % assumed.

Some compounds with known Activity results, for comparison:
O=C([O-])Cc1ccccc1Nc1c(Cl)cccc1Cl.[Na+] [DICLOFENAC SODIUM] :: 43
Cc1ccc(/C=N\NCC(=O)Nc2ccc(-n3c(C)nc4ccccc4c3=O)cc2)o1 :: 30
COc1ccc(/C=N/NCC(=O)Nc2ccc(-n3c(C)nc4ccccc4c3=O)cc2)cc1 :: 30
Cc1nc2ccccc2c(=O)n1-c1ccc(NC(=O)CN/N=C\c2c[nH]c3ccccc23)cc1 :: 32

Next compound, Activity to be filled in.
Which measured Activity value corresponds to Cc1nc2ccccc2c(=O)n1-c1ccc(NC(=O)CN/N=C/c2ccc(O)cc2)cc1 ? 29

* * *

Tested on: Mus musculus
Protocol: Analgesic activity in Mus musculus […] albino (mouse) at 20 mg/kg, po measured at 3 hr by tail flick test (reference value: 3 +/- 0.41%)
Reported property: Activity (%)
API: value field is a number in %; no unit string.

Solved entries:
Cc1nc2ccccc2c(=O)n1-c1ccc(NC(=O)CN/N=C/c2ccc(F)cc2)cc1 :: 35
O=C([O-])Cc1ccccc1Nc1c(Cl)cccc1Cl.[Na+] [DICLOFENAC SODIUM] :: 41
Cc1nc2ccccc2c(=O)n1-c1ccc(NC(=O)CN/N=C/c2ccc([N+](=O)[O-])cc2)cc1 :: 27
Cc1nc2ccccc2c(=O)n1-c1ccc(NC(=O)CN/N=C/c2ccc(O)cc2)cc1 :: 26
Cc1ccc(/C=N/NCC(=O)Nc2ccc(-n3c(C)nc4ccccc4c3=O)cc2)cc1 :: 41
Cc1nc2ccccc2c(=O)n1-c1ccc(NC(=O)CN/N=C\c2c[nH]c3ccccc23)cc1 :: 20
Cc1nc2ccccc2c(=O)n1-c1ccc(NC(=O)CN/N=C/c2ccc(Cl)cc2)cc1 :: 40
Cc1ccc(/C=N\NCC(=O)Nc2ccc(-n3c(C)nc4ccccc4c3=O)cc2)o1 :: 21

Please give the measured Activity for this compound: Cc1nc2ccccc2c(=O)n1-c1ccc(NC(=O)CN/N=C/c2ccc(C(F)(F)F)cc2)cc1 45

Report Activity for COc1ccc(/C=N/NCC(=O)Nc2ccc(-n3c(C)nc4ccccc4c3=O)cc2)cc1 please. 28

What Activity value was documented for this compound, Cc1nc2ccccc2c(=O)n1-c1ccc(NC(=O)CN/N=C/c2ccccc2)cc1 ? 32

* * *

Tested on: Bacillus cereus
Protocol: Antibacterial activity against Bacillus cereus ATCC 11778 assessed as growth inhibition after 24 hr by agar streak dilution method
Type: functional
Particulars: ATCC 11778, 24 h
The entries below are paired with their reported MIC.

Consider the worked cases shown below.
Cc1nc2ccccc2c(=O)n1-c1ccc(NC(=O)CN/N=C/c2ccc(F)cc2)cc1 :: 7.81 µg/mL
COc1ccc(/C=N/NCC(=O)Nc2ccc(-n3c(C)nc4ccccc4c3=O)cc2)cc1 :: 62.5 µg/mL
Cc1nc2ccccc2c(=O)n1-c1ccc(NC(=O)CN/N=C/c2ccc(C(F)(F)F)cc2)cc1 :: 3.9 µg/mL

Query: MIC; subject: Cc1nc2ccccc2c(=O)n1-c1ccc(NC(=O)CN/N=C/c2ccccc2)cc1 31.2 µg/mL

Which MIC reading was recorded for the compound O=C(O)c1cn(C2CC2)c2cc(N3CCNCC3)c(F)cc2c1=O [CIPROFLOXACIN] ? 7.81 µg/mL

Can you look up the measured MIC of Cc1ccc(/C=N/NCC(=O)Nc2ccc(-n3c(C)nc4ccccc4c3=O)cc2)cc1 for me? 31.2 µg/mL

* * *

Test system: Escherichia coli
Protocol: Antibacterial activity against Escherichia coli ATCC 25922 assessed as growth inhibition after 24 hr by agar streak dilution method
Type: functional
Particulars: ATCC 25922, 24 h
Catalogue of molecules with associated MIC
Quick reminder: number only, in µg/mL, skip the unit.

Field: example entries. Status: answers known.
Cc1nc2ccccc2c(=O)n1-c1ccc(NC(=O)CN/N=C/c2ccc(Cl)cc2)cc1 :: 31.2
Cc1nc2ccccc2c(=O)n1-c1ccc(NC(=O)CN/N=C/c2ccc([N+](=O)[O-])cc2)cc1 :: 31.2
O=C(O)c1cn(C2CC2)c2cc(N3CCNCC3)c(F)cc2c1=O [CIPROFLOXACIN] :: 15.6

MIC for Cc1nc2ccccc2c(=O)n1-c1ccc(NC(=O)CN/N=C/c2ccc(F)cc2)cc1 ? 31.2

Which MIC is reported for this molecule? Cc1ccc(/C=N\NCC(=O)Nc2ccc(-n3c(C)nc4ccccc4c3=O)cc2)o1 62.5

* * *

Test system: Rattus norvegicus
Protocol: Ulcerogenecity in Rattus norvegicus Wistar albino (rat) stomach assessed as ulcer index administered 20 mg/kg, ip qd for 3 days measured on day 4 relative to aspirin
Format: ADME, organism-based
Set-up: dose 20 mg/kg, route intraperitoneal
Particulars: in vivo, 72 h
Reported property: UI (%)
Express the result in % but write the number alone.

If you can, please state the reported UI value of Cc1nc2ccccc2c(=O)n1-c1ccc(NC(=O)CN/N=C/c2ccc(Cl)cc2)cc1 . 31

# lookup: UI of Cc1nc2ccccc2c(=O)n1-c1ccc(NC(=O)CN/N=C/c2ccccc2)cc1 31

If you can, please state the reported UI value of Cc1nc2ccccc2c(=O)n1-c1ccc(NC(=O)CN/N=C/c2ccc(C(F)(F)F)cc2)cc1 . 32

GET /values?readout=UI&item= Cc1nc2ccccc2c(=O)n1-c1ccc(NC(=O)CN/N=C/c2ccc([N+](=O)[O-])cc2)cc1 31

Look up UI for this compound: Cc1nc2ccccc2c(=O)n1-c1ccc(NC(=O)CN/N=C\c2c[nH]c3ccccc23)cc1 31

* * *

Test system: Staphylococcus aureus
Protocol: Antibacterial activity against Staphylococcus aureus ATCC 9144 assessed as growth inhibition after 24 hr by agar streak dilution method
Type: functional
Particulars: ATCC 9144, 24 h
Reported property: MIC
Answer format: number, then unit.

Some solved entries appear below for comparison.
Cc1nc2ccccc2c(=O)n1-c1ccc(NC(=O)CN/N=C/c2ccc([N+](=O)[O-])cc2)cc1 :: 31.2 µg/mL
Cc1nc2ccccc2c(=O)n1-c1ccc(NC(=O)CN/N=C/c2ccc(O)cc2)cc1 :: 125 µg/mL
Cc1ccc(/C=N\NCC(=O)Nc2ccc(-n3c(C)nc4ccccc4c3=O)cc2)o1 :: 62.5 µg/mL

Find the recorded MIC belonging to Cc1ccc(/C=N/NCC(=O)Nc2ccc(-n3c(C)nc4ccccc4c3=O)cc2)cc1 and report it. 125 µg/mL

Name the reported MIC value associated with the molecule COc1ccc(/C=N/NCC(=O)Nc2ccc(-n3c(C)nc4ccccc4c3=O)cc2)cc1 125 µg/mL

Consider the molecule Cc1nc2ccccc2c(=O)n1-c1ccc(NC(=O)CN/N=C/c2ccc(F)cc2)cc1 and give its measured MIC. 31.2 µg/mL

Look up MIC for this molecule: Cc1nc2ccccc2c(=O)n1-c1ccc(NC(=O)CN/N=C/c2ccc(C(F)(F)F)cc2)cc1 15.6 µg/mL

* * *

System: Rattus norvegicus
Protocol: Anti-inflammatory activity in Rattus norvegicus Wistar (rat) assessed as protection against carrageenan-induced paw edema at 20 mg/kg, po measured at 3 hr by plethysmographic analysis (reference value: 4 +/- 0.75%)
Format: functional
Reported property: Activity (%)
Answer format: numeric, % implied, no suffix.

Cc1nc2ccccc2c(=O)n1-c1ccc(NC(=O)CN/N=C/c2ccccc2)cc1 :: 32

Dear colleague, I am looking for the recorded Activity of the following compound: Cc1ccc(/C=N/NCC(=O)Nc2ccc(-n3c(C)nc4ccccc4c3=O)cc2)cc1 39

* * *

Test system: Staphylococcus aureus
Protocol: Antibacterial activity against Staphylococcus aureus ATCC 9144 assessed as growth inhibition after 24 hr by agar streak dilution method
Format: functional
Particulars: ATCC 9144, 24 h
Reported MIC values for the following compounds.
The reply should contain only the number, in µg/mL.

Cc1nc2ccccc2c(=O)n1-c1ccc(NC(=O)CN/N=C\c2c[nH]c3ccccc23)cc1 :: 62.5
Cc1nc2ccccc2c(=O)n1-c1ccc(NC(=O)CN/N=C/c2ccc(Cl)cc2)cc1 :: 31.2
O=C(O)c1cn(C2CC2)c2cc(N3CCNCC3)c(F)cc2c1=O :: 15.6

Now take the following compound into account.
Recorded MIC of Cc1nc2ccccc2c(=O)n1-c1ccc(NC(=O)CN/N=C/c2ccccc2)cc1 , please. 31.2

* * *

Test system: Rattus norvegicus
Protocol: Anti-inflammatory activity in Rattus norvegicus Wistar (rat) assessed as protection against carrageenan-induced paw edema at 20 mg/kg, po measured at 3 hr by plethysmographic analysis (reference value: 4 +/- 0.75%)
Format: functional
Reported property: Activity (%)
// units = %; emit number, no label

See these solved cases before continuing.
Cc1nc2ccccc2c(=O)n1-c1ccc(NC(=O)CN/N=C/c2ccc(C(F)(F)F)cc2)cc1 :: 47
Cc1nc2ccccc2c(=O)n1-c1ccc(NC(=O)CN/N=C/c2ccc(Cl)cc2)cc1 :: 42
Cc1nc2ccccc2c(=O)n1-c1ccc(NC(=O)CN/N=C/c2ccc(F)cc2)cc1 :: 36

Would you kindly look at the next entry?
Please tell me: Activity of Cc1nc2ccccc2c(=O)n1-c1ccc(NC(=O)CN/N=C/c2ccc([N+](=O)[O-])cc2)cc1 , system Rattus norvegicus? 31
